Each recorded value in this set is attributed to PubChem BioAssay (NCI).

System: HCT-15 colon
Experiment: NCI tumour cell line growth inhibition, 48 h; in the data active = GI50 below about 0.43 µM; inactive = the rest
Allowed answers: active, inactive

# compound, label.value
data = [
    ("OCc1ccc(-c2cscc2-c2ccc(CO)o2)o1", "inactive"),
    ("C1=C2CCCC3=Cc4ccccc4OC23Oc2ccccc21", "inactive"),
    ("CCN(c1cc(-c2ccc(CN3CCOCC3)cc2)cc(C(=O)NCc2c(C)cc(C)[nH]c2=O)c1C)C1CCOCC1", "inactive"),
    ("COC(=O)COc1ccc(/C=C2/N=C(c3ccccc3)N(c3c(C)n(C)n(-c4ccccc4)c3=O)C2=O)cc1", "inactive"),
    ("Cc1nc2c(n1C)C(=O)c1ccccc1C2=O", "inactive"),
    ("CC(C)=CCC(OC(=O)C=C(C)C)C1=CC(=O)c2c(O)ccc(O)c2C1=O (centres undefined)", "inactive"),
]

Asked: Hey, what did the test say about C#Cc1nc2ccccc2c(=O)[nH]1 ?
Given back: active

Asked: Also need O=C(Oc1ccc(CO[N+](=O)[O-])cc1)c1ccccc1 , thanks.
Given back: active

Asked: Also need COc1cc2c(cc1OC)C(=O)/C(=C/c1cc(-c3ccc4c(c3)OCO4)n[nH]1)C2 , thanks.
Given back: inactive

###

System: SK-OV-3 ovarian
Test: NCI tumour cell line growth inhibition, 48 h
Below, each entry is listed with its recorded GI50.

Please review the entries below; each comes with its answer.
# compound, test.result
measured = [
    ("CC(C)(C)OC(=O)NCCCn1c2c(c3ccccc3c1=O)C(=O)c1ccccc1-2", "25 µM"),
    ("CCCCCC[C@H](C)Nc1nc2ccccc2c2occc12", "16.5 µM"),
    ("Cn1cc(-c2ccc3nnc(Sc4ccc5ncccc5c4)n3n2)cn1", "> 73.9 µM"),
    ("Cc1nc(Nc2cccnc2)sc1C(=O)/C=C/c1ccc(Cl)cc1", "3.88 µM"),
    ("COc1cc2c(cc1OCCCCCCN1CCN(CC(=O)Nc3ccc(Cl)cc3C(=O)c3ccccc3Cl)CC1)N=CC1CCCN1C2=O (stereo not drawn)", "0.494 µM"),
]

Asked: Find the recorded GI50 belonging to S=c1nc(N/N=C/c2ccco2)c2cn[nH]c2[nH]1 and report it.
Given back: 92.7 µM

Asked: Also need O=C(Nc1ccc(-c2nc(-c3cccc(OCCN4CCOCC4)c3)c(-c3ccnc(Br)c3)[nH]2)cc1)c1ccccc1 , thanks.
Given back: 2.15 µM

Asked: Also need Cc1nc2c(n1C)C(=O)c1ccccc1C2=O , thanks.
Given back: > 100 µM

Asked: Also need COC(=O)COc1ccc(/C=C2/N=C(c3ccccc3)N(c3c(C)n(C)n(-c4ccccc4)c3=O)C2=O)cc1 , thanks.
Given back: 17.3 µM

Asked: Also need O=c1cc(N/N=C/c2ccc(F)cc2)c2cc(Cl)ccc2[nH]1 , thanks.
Given back: 20.1 µM

Asked: Also need CC1=C2C(=CO[C@H](C)[C@H]2C)C(=O)C(C(=O)O)=C1O , thanks.
Given back: 28 µM

Asked: Also need C1CC[N-]CC1.CC(=N\O)/C(C)=N/O.CC(=N\O)/C(C)=N/O.OC1[CH-]CCCC1.[Co+2] , thanks.
Given back: > 100 µM

Asked: Also need COc1cc2c(cc1OC)C(=O)/C(=C/c1cc(-c3ccc4c(c3)OCO4)n[nH]1)C2 , thanks.
Given back: 2.89 µM

###

Below, each entry is listed with its recorded log10 TGI.
Tested on: EKVX NSCLC
Experiment: NCI tumour cell line growth inhibition, 48 h
All values: log10 TGI [µM].

# molecule, quantity.measured, test.result
rows = [
    ("CCCCCC[C@H](C)Nc1nc2ccccc2c2occc12", "log10 TGI", 0.85),
    ("CN(C)CCCNc1ccc2nnn3c4ccc(O)cc4c(=O)c1c23", "log10 TGI", 1.40),
    ("CC(C)CCCC(C)[C@H]1CCC2[C@@H]3CCC4Nc5c(cnn5-c5ccccc5)C[C@]4(C)C3CC[C@@]21C (some centres undefined)", "log10 TGI", 1.90),
    ("c1ccc2c(-c3nc(-c4c[nH]c5ccncc45)cs3)c[nH]c2c1", "log10 TGI", 0.66),
]

Here is another molecule to look at.
Asked: Find the recorded log10 TGI belonging to COc1ccc2cc(CNCCCCCCNCc3ccc4cc(OC)ccc4c3)ccc2c1 and report it.
Given back: 0.44

###

Test system: SF-539 CNS
Experiment: NCI tumour cell line growth inhibition, 48 h
quantity.measured: TGI (µM)
The response must be a number in µM with no trailing unit.

Please review the entries below; each comes with its answer.
# molecule, TGI, µM
data = [
    ("C=C1CCC2(C#N)[C@H]3[C@H](CC[C@@H]2C)[C@@H](C)C[C@@H](CC(C)(C)NC(=O)CN2CCC2=O)[C@H]13 (some centres undefined)", 19.4),
    ("O=C1/C(=C/c2ccccc2)CN(C(=O)CCN2CCCC2)C/C1=C\\c1ccccc1", 5.4),
    ("C=C1C(=O)OC2CC(C)C3CC(O)OC(OCC)C3(C)CC12 (centres undefined)", 35.4),
    ("C1CC[N-]CC1.CC(=N\\O)/C(C)=N/O.CC(=N\\O)/C(C)=N/O.OC1[CH-]CCCC1.[Co+2]", 71.1),
    ("COc1cc(NC(=O)CCSc2nc3ccc(C)cc3c(=O)n2Cc2ccccc2)cc(OC)c1OC", 7.26),
]

Here is another molecule to look at.
Asked: Find the recorded TGI belonging to COC(=O)COc1ccc(/C=C2/N=C(c3ccccc3)N(c3c(C)n(C)n(-c4ccccc4)c3=O)C2=O)cc1 and report it.
Given back: 30.2

###

System: SNB-75 CNS
Experiment: NCI tumour cell line growth inhibition, 48 h
Below, each entry is listed with its recorded GI50.

Please review the entries below; each comes with its answer.
# compound, GI50
rows = [
    ("Cc1ccc(S(=O)(=O)c2nc(-c3ccccc3)oc2S(C)=O)cc1 (stereo unspecified)", "2690 nM"),
    ("Cn1cc(C2=C(c3cn(C)c4ccc(Cl)cc34)C(=O)NC2=O)c2ccccc21", "709 nM"),
    ("CC(C)=CCC(OC(=O)C=C(C)C)C1=CC(=O)c2c(O)ccc(O)c2C1=O (stereo unspecified)", "3870 nM"),
    ("COc1cc2c(cc1OC)C(=O)/C(=C/c1cc(-c3ccc4c(c3)OCO4)n[nH]1)C2", "1650 nM"),
    ("Cc1nc2c(n1C)C(=O)c1ccccc1C2=O", "> 100000 nM"),
]

Here is another compound to look at.
Asked: Find the recorded GI50 belonging to COc1ccc(-c2nc(-c3nc4ccc(F)cc4[nH]3)c3ccccn23)cc1 and report it.
Given back: 3400 nM

###

Test system: DMS 273 small cell lung
Test: NCI tumour cell line growth inhibition, 48 h
Class class 1: TGI at least 10 µM. Class class 0: TGI below 10 µM.

Worked set:
# molecule, label.value
rows = [
    ("CCOC(=O)N1CCc2cc(OC)c(OC)cc2/C1=C\\c1ccc(OC)c(OC)c1", "class 1"),
    ("CC1CCSC(N(C(=O)N(C)c2ccccc2)c2ccccc2)=N1 (stereo unspecified)", "class 1"),
    ("O=C1c2c(O)cccc2-c2nn(CCNCCO)c3ccc(NCCNCCO)c1c23", "class 0"),
    ("O=C(O)c1ccccc1N=Cc1ccc(N(CCCl)CCCl)cc1", "class 1"),
    ("O=C1C=CC(=O)c2c(O)c(NCCOCCO)c(Cl)c(O)c21", "class 1"),
]

Asked: Form field: TGI at least 10 µM? Entry: CC(C)(C)C(=CS(=O)/N=C/c1ccccc1)C(C)(C)C (stereo unspecified)
Given back: class 1

Asked: Also need CC(C)CCCC(C)[C@H]1CCC2[C@@H]3CCC4Nc5c(cnn5-c5ccccc5)C[C@]4(C)C3CC[C@@]21C (stereo partly specified) , thanks.
Given back: class 0

Asked: Also need COc1ccc(CCc2cc(OC)cc(OC)c2)cc1 , thanks.
Given back: class 1

###

Tested on: BT-549 breast
Experiment: NCI tumour cell line growth inhibition, 48 h
quantity.measured: TGI

# compound, quantity.measured, test.result
data = [
    ("CCCCCC[C@H](C)Nc1nc2ccccc2c2occc12", "TGI", "18.5 µM"),
    ("O=c1cc(N/N=C/c2ccc(F)cc2)c2cc(Cl)ccc2[nH]1", "TGI", "44.5 µM"),
    ("C1CC2CN(CCCN3CCOCC3)C(C1)O2 (configuration not stated)", "TGI", "> 100 µM"),
    ("O=C(N/N=C/C=C/c1ccccc1)c1ccccc1Nc1ccccc1C(=O)N/N=C/C=C/c1ccccc1", "TGI", "> 100 µM"),
    ("Cc1nc2c(n1C)C(=O)c1ccccc1C2=O", "TGI", "> 100 µM"),
]

Asked: Find the recorded TGI belonging to CC(C)Cc1ccc(C(C)CC2=CCC(CN(C)C)C2=O)cc1 (configuration not stated) and report it.
Given back: 38.9 µM

Asked: Also need O=C(NCCc1ccccn1)OCc1nc2nc(Cl)nc(N3CCOCC3)c2[nH]1 , thanks.
Given back: 6.83 µM

Asked: Also need c1cncc(CNCc2cccnc2)c1 , thanks.
Given back: > 100 µM

Asked: Also need Cc1nn2c(/C=C3/C(=O)Nc4cc(Cl)ccc43)c(-c3ccccc3)nc2s1 , thanks.
Given back: > 100 µM

Asked: Also need Cc1c(C(=O)OCc2ccccc2)[n+](=O)c2cc(Cl)c(Cl)cc2n1[O-] , thanks.
Given back: 44.4 µM

Asked: Also need CN(C)/N=N/c1nc2c(c(=O)n(C)c(=O)n2C)n1CC(O)CO (configuration not stated) , thanks.
Given back: > 100 µM

Asked: Also need CSCCCNC(=O)c1ccc2c(c1)/C(=C/c1[nH]c(C)cc1C)C(=O)N2 , thanks.
Given back: > 100 µM

Asked: Also need Cc1cc2c([nH]c3ccccc32)c(O)c1-c1c(C)cc2c([nH]c3ccccc32)c1O , thanks.
Given back: 33.6 µM

Asked: Also need O=C(O)COc1cc(-c2ccccc2)nc2cc(F)ccc12 , thanks.
Given back: > 100 µM

Asked: Also need CC(C)(C)CC(C)(C)c1cc(O)c(O)c(CN2CCCCC2)c1 , thanks.
Given back: 28.4 µM

Asked: Also need COc1cc(C2C(Cl)C(=O)N2c2c(C)n(C)n(-c3ccccc3)c2=O)ccc1O (configuration not stated) , thanks.
Given back: 45 µM

Asked: Also need CCOC(=O)c1cc(C)nc2c1c(=O)n(-c1ccccc1)c(=O)n2CCCCN1CCN(c2ccccc2)CC1 , thanks.
Given back: > 100 µM

Asked: Also need O=C(Nn1c(-c2ccccc2)nc2ccccc2c1=O)c1ccccc1O , thanks.
Given back: > 100 µM

Asked: Also need CN(Cc1cnc2nc(N)nc(N)c2n1)c1ccc(C(=O)NC(CO)CCCO)cc1 (configuration not stated) , thanks.
Given back: > 100 µM

Asked: Also need Cn1cc(-c2ccc3nnc(Sc4ccc5ncccc5c4)n3n2)cn1 , thanks.
Given back: > 100 µM

Asked: Also need Cn1c(=O)oc2nc(-c3ccccc3)cc(C(F)(F)F)c21 , thanks.
Given back: > 100 µM

Asked: Also need CC(C)(C)OC(=O)NCC(CNC(=O)OC(C)(C)C)c1nc(C(N)=O)cs1 , thanks.
Given back: > 100 µM
